tested on: SF-268 CNS; assay: NCI tumour cell line growth inhibition, 48 h

[
  {
    "molecule": "CN(CCCCCl)P(=O)(OCc1ccc([N+](=O)[O-])o1)C(F)(F)c1ccc(CC(=O)N[C@@H](CC(=O)O)C(=O)N[C@@H](Cc2ccc(C(F)(F)P(=O)(OCc3ccc([N+](=O)[O-])o3)N(C)CCCCCl)cc2)C(N)=O)cc1 (stereo not given in full)",
    "TGI": "> 100 µM"
  },
  {
    "molecule": "COc1ccc2c(CC(=O)O)cc(=O)oc2c1",
    "TGI": "> 100 µM"
  },
  {
    "molecule": "Oc1ccc(-c2c3ccccc3c(-c3ccc(OCCBr)cc3)c3ccccc23)cc1",
    "TGI": "> 100 µM"
  },
  {
    "molecule": "O=C(CSc1nc2ccc([N+](=O)[O-])cc2[nH]1)Nc1cccc(Cl)c1",
    "TGI": "21.8 µM"
  },
  {
    "molecule": "CCc1ccc(CCC(=O)Nc2ncc(Cc3cc(Cl)ccc3Cl)s2)o1",
    "TGI": "> 50 µM"
  },
  {
    "molecule": "Cc1c2ccccc2c(CO)c2cc(F)c3ccccc3c12",
    "TGI": "71.2 µM"
  },
  {
    "molecule": "CCOc1ccc(C2=C(Cl)c3cc(OC)c(OC)cc3C2Cl)cc1 (stereo not given)",
    "TGI": "> 100 µM"
  },
  {
    "molecule": "COc1ccc(C(=O)C(c2ccc(OC)cc2)C2C(=O)Oc3ccccc32)cc1 (stereo not given)",
    "TGI": "> 100 µM"
  },
  {
    "molecule": "C[C@@H](C(=O)O)c1ccc(-c2ccccc2)c(F)c1",
    "TGI": "> 100 µM"
  },
  {
    "molecule": "O=C1OC(c2ccccc2)C2CC3CC4(CCC3CN12)OCCO4 (stereo not given)",
    "TGI": "> 100 µM"
  }
]
